Test system: MCF7
Test: Cytotoxicity against human MCF7 cells after 48 hrs by sulforhodamine B assay
Assay type: cell-based
Settings: mcf7, 48 h
value.kind: LC50

COc1cc(/C=C/C(=O)CC(=O)/C=C/c2ccc(O)c(OC)c2)ccc1O ... 67.2 µM
O=C1/C(=C/c2ccc(OCc3ccc(Br)cc3)cc2)CNC/C1=C\c1ccc(OCc2ccc(Br)cc2)cc1 ... > 100 µM
O=C1/C(=C/c2ccc3[nH]ccc3c2)CNC/C1=C\c1ccc2[nH]ccc2c1 ... > 100 µM

Provide reported LC50 for each item, in the same order as listed.
1. O=C1/C(=C/c2c[nH]c3ccccc23)CNC/C1=C\c1c[nH]c2ccccc12
2. O=C1/C(=C/c2cccs2)CNC/C1=C\c1cccs1
3. O=C1/C(=C/c2ccccc2)CNC/C1=C\c1ccccc1
4. Cc1ccc(/C=C2\CNC/C(=C\c3ccc(C)s3)C2=O)s1

RESULT:
["8.2 µM", "> 100 µM", "9 µM", "> 100 µM"]

---

Could you please report measured LC50 for the items listed next?
Tested on: NCI-H460
Assay: Cytotoxicity against human NCI-H460 cells after 48 hrs by sulforhodamine B assay
Type: cell-based
Settings: nci-h460, 48 h

O=C1/C(=C/c2c[nH]cn2)CNC/C1=C\c1c[nH]cn1 ... > 100 µM
O=C1/C(=C/c2c[nH]c3ccccc23)CNC/C1=C\c1c[nH]c2ccccc12 ... 8.7 µM

QUERY: For the compound shown here, O=C1/C(=C/c2ccccc2)CNC/C1=C\c1ccccc1 , give the reported LC50.
RESULT: 10.3 µM
